test system: platelet aggregation, human whole blood; experiment: Inhibition of collagen-induced platelet aggregation in human whole blood; format: cell-based; details: Platelet, collagen 1 μg/ml, 1 minute preincubation, count 5 minutes after collagen, vs saline, read-out: CI50 (platelet aggregation)
pIC50: −log10 of the molar value.
outcome-measure: pIC50

INSERT INTO assay_data (compound, system_under_test, measured_number) VALUES
  ('CCOC(=O)COc1ccc2c(C)c(CCN(CC)CC)c(=O)oc2c1Cl [Compound 201006, Cloricromene, reference compound]', 'platelet aggregation, human whole blood', 4.46);

* * *

test system: IL-1β; experiment: Inhibition of the release of IL-1β following stimulation with LPS in vivo; settings: rat, dose of 0.5 mg/Kg i.v. 15 minutes before LPS; blood 120 minutes after LPS, ELISA; vs saline controls
The following compounds are shown together with reported % of inhibition of IL-1β values.
outcome-measure: % of inhibition of IL-1β (%)

INSERT INTO measurements (compound, measured_number) VALUES
  ('CCCCC(O)COc1ccc2c(C)c(CCN(CC)CC)c(=O)oc2c1Cl.Cl (stereo not shown) [Compound 201326]', 40),
  ('C=CCc1cc2c(C)c(CN3CCOCC3)c(=O)oc2c(CC=C)c1OCCCOc1c(CC=C)cc2c(C)c(CN3CCOCC3)c(=O)oc2c1CC=C.Cl.Cl [Compound 203152]', 64),
  ('CCN(CC)CCc1c(C)c2ccc(OCC(=O)NC3CCCCC3)c(Cl)c2oc1=O.Cl.Cl [Compound 201330]', 33),
  ('CCCCC(O)COc1ccc2c(C)c(CCN(CC)CC)c(=O)oc2c1.Cl (stereo not shown) [Compound 201273]', 67);

* * *

test system: TNF release, human blood; assay: Inhibition of TNF release after stimulation with LPS in vitro, whole blood (L929 mortality readout); assay type: cell-based; conditions: heparinised whole blood stimulated with LPS; concentration (± standard error) inhibiting L929 fibroblast mortality by 50%; read-out: Human blood CI50
pIC50: −log10 of the molar value.
outcome-measure: pIC50

INSERT INTO measurements (compound, outcome_measure, relation_sign, measured_number) VALUES
  ('CCCCC(O)COc1ccc2c(C)c(CCN(CC)CC)c(=O)oc2c1.Cl (stereo not drawn)', 'pIC50', '=', 4.39),
  ('CCOC(=O)COc1ccc2c(C)c(CCN(CC)CC)c(=O)oc2c1Cl [Compound 201006, Cloricromene, reference compound]', 'pIC50', '=', 4.10),
  ('C=CCc1cc2c(C)c(CN3CCOCC3)c(=O)oc2c(CC=C)c1OCCCOc1c(CC=C)cc2c(C)c(CN3CCOCC3)c(=O)oc2c1CC=C.Cl.Cl', 'pIC50', '<', 4.10),
  ('CCCCC(O)COc1ccc2c(C)c(CCN(CC)CC)c(=O)oc2c1Cl.Cl (stereo not drawn)', 'pIC50', '=', 4.64),
  ('CCN(CC)CCc1c(C)c2ccc(OCC(=O)NC3CCCCC3)c(Cl)c2oc1=O.Cl.Cl', 'pIC50', '=', 4.90),
  ('CCOC(=O)[C@@H](N)CSCC(O)COc1ccc2c(C)c(CCN(CC)CC)c(=O)oc2c1.Cl.Cl (stereo partly drawn)', 'pIC50', '=', 5.05);

Where do the numbers come from? From patent US20040023893A1.
